Recorded Kd by entry
biological target: T1, IFN-αC (human, UniProt P01566 24-189); assay: ProteOn, one antigen concentration
T1 construct: also called IFN-α10; alpha C
Write down the numeric answer in nM and omit the unit.

Qu. Reported Kd, binder IFWM3316 (antibody, V domains shown, VH IFWH591, VL IFWL1022; converted mAb; also called IFWB3051) VH: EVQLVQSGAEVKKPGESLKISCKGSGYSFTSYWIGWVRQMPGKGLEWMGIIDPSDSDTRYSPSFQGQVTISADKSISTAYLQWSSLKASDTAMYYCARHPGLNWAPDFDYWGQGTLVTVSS VL: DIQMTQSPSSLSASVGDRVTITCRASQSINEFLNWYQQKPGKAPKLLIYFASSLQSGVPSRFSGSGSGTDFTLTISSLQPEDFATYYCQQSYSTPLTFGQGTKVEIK : ____
Ans. 0.042

Qu. Item: IFWM3315 (antibody, V domains shown, VH IFWH591, VL IFWL1017; converted mAb; also called IFWB3050) VH: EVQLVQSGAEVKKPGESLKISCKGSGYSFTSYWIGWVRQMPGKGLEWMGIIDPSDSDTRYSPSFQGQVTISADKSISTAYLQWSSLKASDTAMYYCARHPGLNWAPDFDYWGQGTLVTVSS VL: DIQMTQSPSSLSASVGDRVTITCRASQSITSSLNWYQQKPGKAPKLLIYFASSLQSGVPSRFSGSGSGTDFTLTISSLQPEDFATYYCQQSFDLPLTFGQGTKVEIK
Ans. 0.059

Qu. Follow-up item: IFWM3304 (antibody, V domains shown, VH IFWH591, VL IFWL997; converted mAb; also called IFWB3039) VH: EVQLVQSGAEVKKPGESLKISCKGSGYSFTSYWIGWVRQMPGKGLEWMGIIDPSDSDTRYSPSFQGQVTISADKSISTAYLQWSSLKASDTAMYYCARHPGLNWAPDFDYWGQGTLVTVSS VL: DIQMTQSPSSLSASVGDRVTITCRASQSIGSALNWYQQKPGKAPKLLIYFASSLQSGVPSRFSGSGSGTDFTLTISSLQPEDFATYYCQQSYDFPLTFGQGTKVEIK
Ans. 0.026

Qu. Please give the result for IFWM3357 (antibody, V domains shown, VH IFWH624, VL IFWL1038; converted mAb; also called IFWB3092) VH: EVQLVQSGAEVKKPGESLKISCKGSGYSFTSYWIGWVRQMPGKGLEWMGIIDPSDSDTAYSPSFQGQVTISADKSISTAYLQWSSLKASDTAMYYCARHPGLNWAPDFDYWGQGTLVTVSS VL: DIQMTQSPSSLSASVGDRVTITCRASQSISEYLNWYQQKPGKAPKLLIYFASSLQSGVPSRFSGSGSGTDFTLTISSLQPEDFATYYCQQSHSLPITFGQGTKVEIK too.
Ans. 0.023

Please turn your attention to the following entry.
Qu. Reported Kd, binder IFWM3341 (antibody, V domains shown, VH IFWH624, VL IFWL991; converted mAb; also called IFWB3076) VH: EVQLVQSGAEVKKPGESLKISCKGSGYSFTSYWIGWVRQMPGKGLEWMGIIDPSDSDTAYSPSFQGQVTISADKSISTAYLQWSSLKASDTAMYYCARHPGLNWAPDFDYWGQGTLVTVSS VL: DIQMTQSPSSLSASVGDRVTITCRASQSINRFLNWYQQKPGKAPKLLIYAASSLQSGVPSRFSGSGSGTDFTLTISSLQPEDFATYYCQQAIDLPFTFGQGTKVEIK : ____
Ans. 0.104
